- target-or-test-system: RORγ ligand binding domain (LBD) (Homo sapiens)
- Construct: made in house; host or cells: E. coli BL-21 (BL3), vector pDEST15
- Sequence (P51449 269-508 limits assumed): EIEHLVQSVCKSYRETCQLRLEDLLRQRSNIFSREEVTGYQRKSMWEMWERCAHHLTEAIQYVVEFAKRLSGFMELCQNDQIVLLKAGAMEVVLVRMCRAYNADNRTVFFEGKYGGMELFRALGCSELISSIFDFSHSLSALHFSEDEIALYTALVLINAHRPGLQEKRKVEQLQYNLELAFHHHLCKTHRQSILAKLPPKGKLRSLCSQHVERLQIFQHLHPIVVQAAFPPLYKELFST
- assay-info: TR-FRET Activity Assay (ligand sensing, RORγ-LBD / coactivator peptide interaction, LANCE)
- Type: biochemical
- reported-conditions: first value of the cell FRET/FF/REN; TR-FRET activity assay; read-out: pIC50 (FRET) (converted)
quantity-measured: IC50 (nM)

// known answers, use as guide
| compound | target-or-test-system | quantity-measured | value-reported |
| --- | --- | --- | --- |
| Cc1c(C(=O)NCC(O)C(F)(F)F)cc(-c2cc(C(C)(C)C)c3c(c2)C2(CCO3)CC2)n1CC1CCCCC1 (stereo not shown) | RORγ ligand binding domain (LBD) (Homo sapiens) | IC50 | 1260 |
| Cc1c(C(N)=O)cc(-c2cccc(C(O)(C(F)(F)F)C(F)(F)F)c2)n1CC1CCCCC1 | RORγ ligand binding domain (LBD) (Homo sapiens) | IC50 | 3980 |

1: Cc1c(C(=O)NCC2(C(=O)O)CCOCC2)cc(-c2ccc(S(=O)(=O)NC(C)(C)C)c(C(F)(F)F)c2)n1CC1CCCCC1
2: Cc1c(C(=O)NCCC(C)(C)C(=O)O)cc(-c2ccc(S(=O)(=O)NC(C)(C)C)c(C(F)(F)F)c2Cl)n1CC1CCCCC1
Q: Which record would sort first by descending IC50, 1 or 2 ? Refer to your chosen item by its label in the answer.
A: 2
